- Test system: AR 1.0 cells
- ASSAY INFO: Potentiation index with doxorubicin titration
- Assay type: cell-based, mouse
- CONDITION LABEL: Table C1, RMA 100 nM
OBSERVED PROPERTY: Potentiation Index at RMA concentration 100 nM

For the compound COc1cc(CCN2CCc3cc(OC)c(OC)cc3C2)ccc1NC(=O)c1ccccc1NC(=O)c1cnc2ccccc2c1 , the measured Potentiation Index at RMA concentration 100 nM on AR 1.0 cells was 2.2

For the compound COc1cc2c(cc1OC)CN(CCc1ccc(NC(=O)c3cscc3NC(=O)c3ccc(C)nc3)cc1)CC2 , the measured Potentiation Index at RMA concentration 100 nM on AR 1.0 cells was 81

For the compound COc1cc2c(cc1OC)CN(CCSc1ccc(NC(=O)c3ccccc3NC(=O)c3cnc4ccccc4c3)cc1)CC2 , the measured Potentiation Index at RMA concentration 100 nM on AR 1.0 cells was 25

----------
- Tested on: AR 1.0 cells
- ASSAY INFO: Potentiation index with doxorubicin titration
- Format: cell-based, mouse
- CONDITION LABEL: Table C1, RMA 50 nM
Label rule met when Potentiation Index at RMA concentration 50 nM is strictly below 20; at or above that, label rule not met.

Answered examples (4):
COc1cc2c(cc1OC)CN(CCc1ccc(NC(=O)c3cccnc3NC(=O)c3cnc4ccccc4n3)cc1)CC2 : rule met
COc1cc(CCN2CCc3cc(OC)c(OC)cc3C2)ccc1NC(=O)c1ccccc1NC(=O)c1cnc2ccccc2c1 : rule met
COc1cc2c(cc1OC)CN(CCCc1cccc(NC(=O)c3ccccc3NC(=O)c3cnc4ccccc4c3)c1)CC2 : rule met
CCOc1cc2c(cc1OCC)CN(CCc1ccc(NC(=O)c3ccccc3NC(=O)c3cnc4ccccc4c3)cc1)CC2 : rule not met

Note: attention shifts to another entry.
Consider the compound COc1cc2c(cc1OC)CN(CCc1ccc(NC(=O)c3cc(N(C)C)ccc3NC(=O)c3cnc4ccccc4n3)cc1)CC2 . Is its Potentiation Index at RMA concentration 50 nM strictly less than 20?
rule not met

----------
molecules and their reported Potentiation Index at RMA concentration 50 nM
- Test system: AR 1.0 cells
- ASSAY INFO: Potentiation index with doxorubicin titration
- Format: cell-based, mouse
- CONDITION LABEL: Table C1, RMA 50 nM
I only need the number, thanks.

Previously resolved entries follow.
Cc1ccc(CN(C)CCc2ccc(NC(=O)c3ccccc3NC(=O)c3cnc4ccccc4c3)cc2)cc1C : 20
COc1cc2c(cc1OC)CN(CCSc1ccc(NC(=O)c3ccccc3NC(=O)c3cnc4ccccc4c3)cc1)CC2 : 4.4

Data point: COc1ccc(CN(C)CCc2ccc(NC(=O)c3ccccc3NC(=O)c3cnc4ccccc4c3)cc2)cc1OC(C)C ; Potentiation Index at RMA concentration 50 nM = 78

Data point: COc1ccc(CN2CCc3ccc(NC(=O)c4ccccc4NC(=O)c4cnc5ccccc5n4)cc3C2)cc1OC ; Potentiation Index at RMA concentration 50 nM = 32

Data point: CN(CCc1ccc(NC(=O)c2ccccc2NC(=O)c2cnc3ccccc3c2)cc1)Cc1ccc(N(C)C)cc1 ; Potentiation Index at RMA concentration 50 nM = 37

Data point: O=C(Nc1ccccc1C(=O)Nc1ccc(CCN2Cc3ccccc3C2)cc1)c1cnc2ccccc2c1 ; Potentiation Index at RMA concentration 50 nM = 8
